target: T1, CD3 on primary human pan T cells (human, UniProt P07766 23-207); test: flow cytometry, pan T-cells
T1 construct: on cells it stands in the TCR/CD3 complex; also called Pan T-cells (CD3-positive); endogenous CD3
T1 sequence (P07766 23-207 limits assumed): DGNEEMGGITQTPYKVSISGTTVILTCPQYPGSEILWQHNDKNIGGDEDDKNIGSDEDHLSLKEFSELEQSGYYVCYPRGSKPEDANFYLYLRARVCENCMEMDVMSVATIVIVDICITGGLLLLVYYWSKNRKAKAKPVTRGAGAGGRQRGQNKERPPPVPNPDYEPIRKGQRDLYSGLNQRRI
Entries and their % Binding retained on T-cells, RT
measured-property: % Binding retained on T-cells, RT (fraction)

>  <binder>
CD3B2044 (scFv) scFv: QVQLVQSGAEVKKPGSSVKVSCKASGYTFTRSTMHWVRQAPGQGLEWIGYINPSSAYTNYNQKFQGRVTLTADKSTSTAYMELSSLRSEDTAVYYCASPQVHYDYNGFPYWGQGTLVTVSSGGSEGKSSGSGSESKSTGGSEIVLTQSPATLSASPGERVTLSCSASSSVSYMNWYQQKPGQSPRRWIYDSSKLASGVPARFSGSGSGRDYTLTISSLEPEDFAVYYCQQWSRNPPTFGGGTKVEIK

>  <readout-unit>
fraction

>  <meas-value>
1

$$$$
>  <binder>
CD3B2071 (scFv) scFv: QVQLVQSGAEVKKPGSSVKVSCKASGYTFTRSTMHWVRQAPGQGLEWMGYINPSSAYTNYNQKFQGRVTLTADKSTSTAYMELSSLRSEDTAVYYCASPQVHYDYNGFPYWGQGTLVTVSSGGSEGKSSGSGSESKSTGGSEIVLTQSPATLSASPGERVTLSCSASSSVSYMNWYQQKPGTAPRRLIYDSSKLASGVPARFSGSGSGRDYTLTISSLEPEDFAVYYCQQWSRNPPTFGGGTKVEIK

>  <readout-unit>
fraction

>  <meas-value>
1

$$$$
>  <binder>
CD3B2037 (scFv) scFv: QVQLVQSGAEVKKPGSSVKVSCKASGYTFTRSTMHWVKQAPGQGLEWMGYINPSSAYTNYAQKFQGRVTLTADKSTSTAYMELSSLRSEDTAVYYCASPQVHYDYNGFPYWGQGTLVTVSSGGSEGKSSGSGSESKSTGGSEIVLTQSPATLSASPGERVTLSCSASSSVSYMNWYQQKPGTSPRRLIYDSSKLASGVPARFSGSGSGRDYTLTISSLEPEDFAVYYCQQWSRNPPTFGGGTKVEIK

>  <readout-unit>
fraction

>  <meas-value>
1

$$$$
>  <binder>
CD3B2031 (scFv) scFv: QVQLVQSGAEVKKPGSSVKVSCKASGYTFTRSTMHWVKQAPGQGLEWMGYINPSSAYTNYNQKFQGRVTLTADKSTSTAYMELSSLRSEDTAVYYCASPQVHYDYNGFPYWGQGTLVTVSSGGSEGKSSGSGSESKSTGGSEIVLTQSPATLSASPGERVTLSCSASSSVSYMNWYQQKPGTAPRRWIYDSSKLASGVPARFSGSGSGRDYTLTISSLEPEDFAVYYCQQWSRNPPTFGGGTKVEIK

>  <readout-unit>
fraction

>  <meas-value>
1

$$$$
>  <binder>
CD3B2030 (scFv) scFv: QVQLVQSGAEVKKPGSSVKVSCKASGYTFTRSTMHWVKQAPGQGLEWIGYINPSSAYTNYNQKFQGRVTLTADKSTSTAYMELSSLRSEDTAVYYCASPQVHYDYNGFPYWGQGTLVTVSSGGSEGKSSGSGSESKSTGGSEIVLTQSPATLSASPGERVTLSCSASSSVSYMNWYQQKPGQAPRRWIYDSSKLASGVPARFSGSGSGRDYTLTISSLEPEDFAVYYCQQWSRNPPTFGGGTKVEIK

>  <readout-unit>
fraction

>  <meas-value>
1

$$$$
